Assignment: determine reported GI50 for the given compounds.
- Test system: BT-549 breast
- TEST_METHOD_NOTES: NCI tumour cell line growth inhibition, 48 h

Can you look up the measured GI50 of CSc1ccc(/C=C2\C=C(CC(=O)NCc3ccc(C(=O)c4ccccc4)cc3)c3cc(F)ccc32)cc1 for me? 1.43 µM

Can you look up the measured GI50 of COc1ccc(C(=O)N2c3ccccc3Sc3ccccc32)c(C(F)(F)F)c1 for me? 0.892 µM

Can you look up the measured GI50 of Cc1ccc(NC(=O)Cn2c(Br)nc3c2c(=O)n(C)c(=O)n3C)cc1 for me? 11.1 µM

Can you look up the measured GI50 of COc1cc(/C=C2/N=C(c3ccccc3)N(C3=NNC4(C(=O)N3)c3ccccc3-c3ccccc34)NC2=O)ccc1O for me? 25.9 µg/mL

Can you look up the measured GI50 of CC(=O)Nc1ccc(S(=O)(=O)NNC(=O)c2cccnc2Nc2ccc(Cl)cc2)cc1 for me? 25.2 µM

Can you look up the measured GI50 of COC(=O)CCC1=C(C)/C(=C/c2[nH]c(-c3ccc[nH]3)cc2OC)N=C1C for me? 0.493 µM

Can you look up the measured GI50 of C[C@]12CC[C@@H]3c4ccc(O)cc4C(O)C[C@H]3[C@@H]1CCC2=O (some centres undefined) for me? > 100 µM

Can you look up the measured GI50 of Oc1ccccc1-c1nc2c3ccccc3c3ccccc3c2[nH]1 for me? 9.06 µM

Can you look up the measured GI50 of COc1cc(S(C)(=O)=O)ccc1Nc1nc2ccc(-c3ccc(NC(=O)[C@H](C)c4ccc(F)cc4)cc3)cn2n1 for me? > 63.8 µM
